target.entity: DNA ligase A (Mycobacterium tuberculosis, UniProt P9WNV1)
method.summary: Inhibition of Mycobacterium tuberculosis LigA
Here the recorded IC50 is given for each entry.
Answer with the value and then the unit.

compound	IC50
CCN(CC)CCCC(C)Nc1ccnc2c1C=CC(Cl)C2 (configuration not stated)	46 µM

Moving on to another compound below.
### Prompt Print DNA ligase A (Mycobacterium tuberculosis, UniProt P9WNV1) IC50 for CC1(C)O[C@H]2OC([C@H](CCO)NCCCN[C@H](CCO)C3O[C@@H]4OC(C)(C)O[C@@H]4[C@H]3OCc3ccccc3)[C@H](OCc3ccccc3)[C@H]2O1 (some centres not stated) .
### Response 46.2 µM
